Tested on: HCT116 cells
assay.comment: HCT116 cytotoxic activity assay (Alamar Blue, 72 h)
Format: cell-based
experimental.context: Homo sapiens, HCT-116, 72 h compound exposure, greater than 2 μM
endpoint.label: IC50

Looking for the measured IC50 of N#Cc1cc(Oc2ccc(Nc3cc(-c4cccnc4)nc(N)n3)cc2)ccn1 , can you help?
> 2000 nM

Looking for the measured IC50 of COCCN(CCOC)c1cc(Oc2cccc(Nc3cc(-c4ccccc4)nc(N)n3)c2)ccn1 , can you help?
> 2000 nM

Looking for the measured IC50 of Cc1ccc(-c2cc(Nc3cccc(Oc4ccnc(C(N)=O)c4)c3)nc(N)n2)cc1 , can you help?
> 2000 nM

Batch lookup, IC50 per entry.
1. NC(=O)c1cc(Oc2cccc(Nc3cc(-c4ccc(Cl)c(Cl)c4)nc(N)n3)c2)ccn1
2. COC[C@H]1CCCN1c1cc(Oc2cccc(Nc3cc(-c4ccccc4)nc(N)n3)c2)ccn1
3. NC(=O)c1cc(Oc2ccc(Nc3cc(-c4ccc(-c5ccccc5)c(F)c4)nc(N)n3)cc2)ccn1
4. NC(=O)c1cc(Oc2ccc(Nc3cc(-c4cccc(CO)c4)nc(N)n3)cc2)ccn1
5. CCC(CC)NCc1cc(Oc2ccc(Nc3cc(-c4ccccc4)nc(N)n3)cc2)ccn1
6. COC[C@@H]1CCCN1c1ccnc(Oc2ccc(Nc3cc(-c4ccccc4)nc(N)n3)cc2)c1

> 2000 nM
> 2000 nM
> 2000 nM
> 2000 nM
> 2000 nM
> 2000 nM

Batch lookup, IC50 per entry.
1. COc1ccc(-c2cc(Nc3ccc(Oc4ccnc(C#N)c4)cc3)nc(N)n2)cc1OC
2. COc1ccc(-c2cc(Nc3ccc(Oc4ccnc(C#N)c4)cc3)nc(N)n2)cc1

1. > 2000 nM
2. > 2000 nM
